assay: melting temperature; fluorescence melt of hairpins on a sequencing array, two-state fit, raised by 9.35 °C to match UV melts; settings: sodium 0.088 M
// NB: equality with 50 °C counts as not fulfilled; only Tm strictly below is fulfilled

Study these solved cases before continuing.
* GCTTTGGGAAACCAAGGC ((.((((....)))).)) | fulfilled
* GATGTTCCGAAAGGAATC (((..(((....)))))) | fulfilled
* GACGCTCCGAAAGGAGTC (((..(((....)))))) | fulfilled
* GGTTAGCGAAAGCTTACC (((.(((....))).))) | not fulfilled

// query State whether 50 °C exceeds Tm recorded for GCGAGGGATCGC ((((....)))) .
// result not fulfilled

// query State whether 50 °C exceeds Tm recorded for GTCTACGAAAGTAGAGAC ((((((....)))..))) .
// result fulfilled

// query State whether 50 °C exceeds Tm recorded for GAATGGCGAAAGCCGTTC (((.(((....))).))) .
// result not fulfilled

// query State whether 50 °C exceeds Tm recorded for GTGGTGACGAAAGTCCAC (((..(((....)))))) .
// result fulfilled

// query State whether 50 °C exceeds Tm recorded for GCAGTCCGAAAGGAATGC (((.(((....))).))) .
// result not fulfilled

// query State whether 50 °C exceeds Tm recorded for GAAACAGGAAACTGTTTC (((((((....))))))) .
// result not fulfilled

// query State whether 50 °C exceeds Tm recorded for GATCTCTTCTGAGATC ((((((....)))))) .
// result not fulfilled

// query State whether 50 °C exceeds Tm recorded for GCGGATGTCCGC ((((....)))) .
// result not fulfilled

// query State whether 50 °C exceeds Tm recorded for GCTATGCGAAAGCGAAGC (((..((....))..))) .
// result fulfilled

// query State whether 50 °C exceeds Tm recorded for GGTTGGCCGAAAGGCACC (((..(((....)))))) .
// result fulfilled

// query State whether 50 °C exceeds Tm recorded for GAGTGACGAAAGTCCTC (((.(((....)))))) .
// result fulfilled
